# system under test: human mAChR M4 (Homo sapiens, UniProt P08173)
# Construct: expressed in transfected cells
# Sequence (P08173 1-479): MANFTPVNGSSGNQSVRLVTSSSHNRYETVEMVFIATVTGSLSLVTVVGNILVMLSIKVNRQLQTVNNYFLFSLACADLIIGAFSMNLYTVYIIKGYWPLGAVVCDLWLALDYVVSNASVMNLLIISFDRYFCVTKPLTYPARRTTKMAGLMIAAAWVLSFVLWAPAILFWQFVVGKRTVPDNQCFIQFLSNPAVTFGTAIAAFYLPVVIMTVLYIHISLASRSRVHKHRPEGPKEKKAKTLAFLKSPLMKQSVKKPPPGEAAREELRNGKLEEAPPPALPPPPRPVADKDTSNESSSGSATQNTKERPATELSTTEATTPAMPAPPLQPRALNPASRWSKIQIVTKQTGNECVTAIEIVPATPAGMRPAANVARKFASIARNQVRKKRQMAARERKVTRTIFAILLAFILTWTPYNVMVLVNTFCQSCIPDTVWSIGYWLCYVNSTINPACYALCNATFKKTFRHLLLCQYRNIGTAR
# assay protocol: mAChR M4 cell-based functional assay (calcium mobilization, CHO-K1 hM4-Gqi5 cells)
# measurement setup: positive allosteric modulator activity, increase in the EC20 acetylcholine response, CHO-K1 hM4-Gqi5 cells; read-out: Human M4 EC50
outcome measure: EC50 (nM)

Solved entries:
                                   compound  unit_label  reported
0  Cc1nc(Cl)c(C)c(N2CCc3ncc(N)cc3C2)n1 [compound 213]          nM      1890
1  Cc1cc(C#N)nnc1N1CCc2ncc(N3CCOc4ncccc43)cc2C1 [Example 391]          nM        53
2  Cc1cc(C#N)nnc1N1CCc2ncc(N3CCC(C)n4nccc43)cc2C1 (stereo not drawn) [Example 383]          nM       171

P: Cc1c(C#N)nnc(N2CCc3ncc(-c4cnc(Cl)c(F)c4)cc3C2)c1C [compound 51]
Q: Cc1cc(C(=O)NC2CC3(COC3)C2)cnc1N1CCc2ncc(-c3cn(C)nc3C)cc2C1 [Example 475]
Input line: Between the two listed entries P and Q , which has its EC50 at the higher number? When you have decided, please share the label of that item.
Output line: Q
(Q: 1740 nM, P: 778 nM)

====

# system under test: human mAChR M4 (Homo sapiens, UniProt P08173)
# Construct: expressed in transfected cells
# Sequence (P08173 1-479): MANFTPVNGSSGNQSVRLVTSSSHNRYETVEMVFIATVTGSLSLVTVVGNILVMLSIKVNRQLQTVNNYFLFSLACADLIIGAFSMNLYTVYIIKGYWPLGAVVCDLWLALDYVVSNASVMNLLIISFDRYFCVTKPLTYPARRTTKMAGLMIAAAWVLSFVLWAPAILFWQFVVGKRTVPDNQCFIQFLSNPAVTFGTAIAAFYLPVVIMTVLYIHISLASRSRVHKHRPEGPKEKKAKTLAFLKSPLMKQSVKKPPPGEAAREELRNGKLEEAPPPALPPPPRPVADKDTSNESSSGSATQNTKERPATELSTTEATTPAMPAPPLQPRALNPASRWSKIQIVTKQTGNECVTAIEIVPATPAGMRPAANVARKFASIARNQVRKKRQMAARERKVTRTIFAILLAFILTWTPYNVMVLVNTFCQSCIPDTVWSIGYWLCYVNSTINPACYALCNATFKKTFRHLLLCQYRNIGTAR
# assay protocol: mAChR M4 cell-based functional assay (calcium mobilization, CHO-K1 hM4-Gqi5 cells)
# measurement setup: CHO-K1, % ACh maximum at 30 μM; human M4
outcome measure: Emax at 30 µM (%)

>>> print(df.to_string())
                    structure_smiles_string  reported
0  Cc1cc(C#N)cnc1N1CCc2ncc(-c3ccnc(C4CC4)c3)cc2C1        90
1  Cc1cc(C#N)cnc1N1CCc2ncc(-c3cnn(C)c3)cc2C1        99
2  Cc1nc(C)c(C)c(N2CCc3ncc(C(F)(F)F)cc3C2)n1        87
3  Cc1cc(C#N)cnc1N1CCc2ncc(Nc3c(F)cccc3Cl)cc2C1        93
4  Cc1c(C(=O)NCc2csc3ccccc23)nnc(N2CCc3ncc(C(F)(F)F)cc3C2)c1C       101
